The following compounds were reported with Ki values on 5-hydroxytryptamine receptor 6 (Homo sapiens, UniProt P50406) in different studies.
Please reply with the bare figure in nM and do not write the unit itself.

These solved cases illustrate the format of a correct answer.
C[C@@H](NCC1CCc2ccc(N(C)S(=O)(=O)c3ccc(Cl)cc3)cc2O1)c1ccccc1 (some centres unmarked)
5
CC(=NNC(=N)N)c1cn(C)c2ccc(NS(=O)(=O)c3ccccc3Br)cc12
1
C[C@@H](NCC1CCc2ccc(N(C)S(=O)(=O)c3cccc4ccccc34)cc2O1)c1ccccc1 (some centres unmarked)
4
Cc1c(S(=O)(=O)n2ncc3c(OCCN4CCCCC4)cccc32)sc2ccc(Cl)cc12
53
NCCn1c(=O)n(S(=O)(=O)c2cc(Cl)sc2Cl)c2cccnc21
22

Input O=S(=O)(c1cccc(F)c1)n1cc(C(F)F)c2cc(N3CCNCC3)ccc21 . Output Ki: 13

For O=S(=O)(c1cn(CC2CCCN2)c2ncccc12)c1c(Cl)nc2sccn12 (centres unmarked) the compound record lists Ki as 2

Entry NCCn1c(=O)n(S(=O)(=O)c2cccc(Cl)c2)c2cccnc21 — recorded Ki = 16

// field: Ki; key: CN1CCN(c2cccc3c2c(C(F)F)cn3S(=O)(=O)c2cccc(F)c2)CC1 ; value = 0.7

Lab note: Cc1nn(C)c(Cl)c1S(=O)(=O)n1c(=O)n(C2=CCNCC2)c2ccccc21 gave Ki of 28

Quick note, Ki for c1ccc(C2CCN(CCCCCCn3c4ccccc4c4ccccc43)CC2)cc1 landed at 169

Form field Ki, entry CN1CCC(c2n[nH]c3ccc(S(=O)(=O)c4ccc5ccccc5c4)cc23)CC1 : 9.6

Note to self: Ki recorded for O=S(=O)(c1cccc2ccccc12)c1nn2c3c(cc(OCCN4CCCC4)cc13)OCC2 was 14

Data point: O=S(=O)(c1ccccc1F)n1ncc2c(OC[C@@H]3CCCN3)cccc21 ; Ki = 8

Entry Nc1ccc(S(=O)(=O)n2ccc3c(OC4CCCNC4)cccc32)cc1 (centres unmarked) — recorded Ki = 11

The compound O=S(=O)(c1c(Cl)nc2sccn12)n1ccc2cc(OCCN3CCCCC3)ccc21 showed Ki equal to 22

For CC(=NNC(=N)N)c1c(-c2ccccc2)n(C)c2ccccc12 the compound record lists Ki as 19

Reported Ki for CN1CCC(c2cn(S(=O)(=O)c3ccc(N)cc3)c3ccccc23)C1 (centres unmarked) was 1

The recorded Ki for entry CN(C)CCn1c(=O)n(S(=O)(=O)c2cccc(Br)c2)c2cccnc21 equals 23

In plain terms, Nc1ccc(S(=O)(=O)n2ccc3c(OC4CCNC4)cccc32)cc1 (centres unmarked) has a documented Ki of 5

# compound O=S(=O)(c1cccc(Cl)c1)c1cn(CC2CCCN2Cc2ccccc2)c2ncccc12 (centres unmarked) ; its Ki = 132

# Ki of O=S(=O)(c1ccccc1)c1c[nH]c2ccc(N3CCN(Cc4ccccc4)CC3)nc12 = 30

---

# merged literature set: pKi with 5-hydroxytryptamine receptor 6 (Homo sapiens, UniProt P50406)
The meaning of pKi here: minus log10 of the concentration in molar units.

Answered cases to consult:
O=c1n(C2CCNCC2)c2ccccc2n1S(=O)(=O)c1cccc2nsnc12
7.35
Cc1c(S(=O)(=O)n2c(=O)n(C3CCNCC3)c3ccccc32)sc2ccc(Cl)cc12
7.10
CC(=NNC(=N)N)c1cn(C)c2ccc(NS(=O)(=O)c3ccc(Cl)cc3)cc12
8.40

# context switch: different compound, same pKi
pKi on 5-hydroxytryptamine receptor 6 (Homo sapiens, UniProt P50406) for CN(C)CCn1c(=O)n(S(=O)(=O)c2cccc(F)c2)c2cccnc21 is 7.10
